Examples of compounds with documented IC50 follow.
- System: HCV replicon 1AY93H
- Procedure Summary: microbe, parasite or virus in culture
- Type: cell-based, Hepatitis C virus (HCV)
- Test Conditions: read-out: 1A Y93H IC50; replicon 1AY93H; Replicon Assay A

# Compound, IC50 / nM
measured = [
    ("COC(=O)N[C@H](C(=O)N1CCC[C@H]1c1ncc(-c2ccc3c(c2)cc2n3C(c3ccc(C4CC4)s3)Oc3cc(-c4cnc([C@@H]5CCCN5C(=O)[C@@H](NC(=O)OC)C5CCOCC5)[nH]4)cc(C)c3-2)[nH]1)C(C)C (single isomer, unassigned) [Compound 122]", 0.007),
    ("COC(=O)NC(C(=O)N1CCC[C@H]1c1ncc(-c2cc(F)c3c(c2)OC(c2ccc(C4CCC4)s2)n2c-3cc3cc(-c4cnc([C@@H]5CCCN5C(=O)[C@@H](NC(=O)OC)C5CCOCC5)[nH]4)ccc32)[nH]1)C(C)(C)F (single isomer, unassigned) [Compound 249]", 1.18),
    ("CCc1ccc(C2Oc3cc(-c4cnc([C@@H]5CCCN5C(=O)[C@@H](NC(=O)OC)C(C)C)[nH]4)cc(F)c3-c3cc4cc(-c5cnc([C@@H]6C[C@@H](F)CN6C(=O)C(NC(=O)OC)C6CCOC(C)(C)C6)[nH]5)ccc4n32)s1 (single isomer, unassigned) [Compound 256]", 16.9),
    ("CCc1ccc(C2Oc3cc(-c4cnc([C@@H]5CCCN5C(=O)C(NC(=O)OC)C5CCOC(C)(C)C5)[nH]4)cc(F)c3-c3cc4cc(-c5cnc([C@@H]6CCCN6C(=O)C(NC(=O)OC)C6CCOC(C)(C)C6)[nH]5)ccc4n32)s1 (single isomer, unassigned) [Compound 291]", 0.28),
]
